molecular target: Rat brain protein farnesyltransferase (Rattus norvegicus, UniProt Q02293+Q04631); construct: The enzyme was purified according to Reiss, Y., et al., Cell, 62: 81-88 (1990), utilizing steps one through three; from tissue; host or cells: rat brain; assay: In vitro inhibition of protein farnesyltransferase (biotin-lamin substrate, scintillation proximity assay); format: biochemical; conditions: 10 μM; compared to uninhibited control
inhibition at 10 µM by entry:
Provide only the numeric value, understood in %.

These solved cases illustrate the format of a correct answer.
compound	experimentalSystem	readoutUnits	obsValue
O=C(O)[C@H]1[C@H](C(=O)N(CCCCc2ccccc2)Cc2ccc(Oc3ccccc3)cc2)[C@H](C(=O)O)[C@H]1C(=O)N(CCCCc1ccccc1)Cc1ccc(Oc2ccccc2)cc1	Rat brain protein farnesyltransferase (Rattus norvegicus, UniProt Q02293+Q04631)	%	51
CCCN(CC#CCc1ccccc1)C(=O)[C@H]1[C@H](C(=O)O)[C@H](C(=O)N(CC#CCc2ccccc2)CCC)[C@H]1C(=O)O	Rat brain protein farnesyltransferase (Rattus norvegicus, UniProt Q02293+Q04631)	%	73
O=C(O)[C@H]1[C@H](C(=O)N(CCc2ccccc2)Cc2ccc(Oc3ccccc3)cc2)[C@H](C(=O)O)[C@H]1C(=O)N(CCc1ccccc1)Cc1ccc(Oc2ccccc2)cc1	Rat brain protein farnesyltransferase (Rattus norvegicus, UniProt Q02293+Q04631)	%	83
O=C(O)[C@H]1[C@H](C(=O)N(Cc2ccccc2)Cc2ccccc2)[C@H](C(=O)O)[C@H]1C(=O)N(Cc1ccccc1)Cc1ccccc1	Rat brain protein farnesyltransferase (Rattus norvegicus, UniProt Q02293+Q04631)	%	64
CCCN(Cc1ccc(Oc2ccccc2)cc1)C(=O)C1C(C(=O)O)C(C(=O)N(CCC)Cc2ccc(Oc3ccccc3)cc2)C1C(=O)O (centres unmarked)	Rat brain protein farnesyltransferase (Rattus norvegicus, UniProt Q02293+Q04631)	%	50

I looked up `O=C(O)[C@H]1[C@H](C(=O)N(Cc2ccc(Oc3ccccc3)cc2)C2CCC2)[C@H](C(=O)O)[C@H]1C(=O)N(Cc1ccc(Oc2ccccc2)cc1)C1CCC1` and its inhibition at 10 µM for Rat brain protein farnesyltransferase (Rattus norvegicus, UniProt Q02293+Q04631) was 52

Tested system Rat brain protein farnesyltransferase (Rattus norvegicus, UniProt Q02293+Q04631); inhibition at 10 µM recorded for `O=C(O)[C@H]1[C@H](C(=O)N(Cc2ccccc2)Cc2ccc(Cl)cc2)[C@H](C(=O)O)[C@H]1C(=O)N(Cc1ccccc1)Cc1ccc(Cl)cc1` was 40

Entry `CCCCN(Cc1ccc(Oc2ccccc2)cc1)C(=O)[C@H]1[C@H](C(=O)O)[C@H](C(=O)N(CCCC)Cc2ccc(Oc3ccccc3)cc2)[C@H]1C(=O)O` , tested on Rat brain protein farnesyltransferase (Rattus norvegicus, UniProt Q02293+Q04631), has a reported inhibition at 10 µM of 69

Response field inhibition at 10 µM (Rat brain protein farnesyltransferase (Rattus norvegicus, UniProt Q02293+Q04631)) for item `O=C(O)[C@H]1[C@H](C(=O)N(Cc2ccc(Oc3ccccc3)cc2)C2CC2)[C@H](C(=O)O)[C@H]1C(=O)N(Cc1ccc(Oc2ccccc2)cc1)C1CC1` : 74

The recorded inhibition at 10 µM with Rat brain protein farnesyltransferase (Rattus norvegicus, UniProt Q02293+Q04631) for `CCCCCN(Cc1ccc(Oc2ccccc2)cc1)C(=O)[C@H]1[C@H](C(=O)O)[C@H](C(=O)N(CCCCC)Cc2ccc(Oc3ccccc3)cc2)[C@H]1C(=O)O` was 38

Let me check: `CCCN(Cc1ccc(Oc2ccccc2)cc1)C(=O)[C@H]1[C@H](C(=O)O)[C@H](C(=O)N(CCC)Cc2ccc(Oc3ccccc3)cc2)[C@H]1C(=O)O` , system Rat brain protein farnesyltransferase (Rattus norvegicus, UniProt Q02293+Q04631), measured inhibition at 10 µM is 55

Data origin: patent US5631401A
